Values from patent USRE47150

# TARGET_ENTITY: T1, mouse tissue factor pathway inhibitor (TFPI) (mouse, UniProt O54819 29-289, limits assumed)
# T1 construct: bought; also called mTFPI; murine TFPI
# T1 sequence (looked up): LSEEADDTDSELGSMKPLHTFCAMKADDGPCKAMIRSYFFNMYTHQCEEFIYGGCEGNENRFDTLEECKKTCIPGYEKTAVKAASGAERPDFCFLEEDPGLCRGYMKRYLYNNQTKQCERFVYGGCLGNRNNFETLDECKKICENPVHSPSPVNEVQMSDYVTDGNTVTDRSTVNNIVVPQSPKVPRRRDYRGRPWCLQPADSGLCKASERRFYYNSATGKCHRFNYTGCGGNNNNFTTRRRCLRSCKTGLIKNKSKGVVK
# ASSAY_TEXT: competitive ELISA
MEASURED_METRIC: variant/HC_D62R (ratio)
The response must be a number in ratio with no trailing unit.

For 4B7 HC N32D+D62S+H107M+Y112D/LC S32R+D33R+N35T (Fab, V domains shown) VH: QVQLQQSGPGLVKPSQTLSLTCAISGDSVSSDSAAWSWIRQSPGRGLEWLGIIYKRSKWYNSYAVSVKSRITINPDTSKNQFSLQLNSVTPEDTAVYYCARWHSDKMWGFDDWGQGTLVTVSS VL: DIVMTQSPLSLPVTPGEPASISCRSSQSLVFRRGTTYLNWYLQKPGQSPQLLIYKGSNRASGVPDRFSGSGSGTDFTLKISRVEAEDVGVYYCQQYDSYPLTFGQGTKVEIKR , what is its reported variant/HC_D62R?
20.3
